test system: SF-295 CNS; experiment: NCI tumour cell line growth inhibition, 48 h
Reported TGI values for a set of compounds
endpointName: TGI (µM)

{"compound": "COC(=O)c1cc(-c2ccc(S(C)(=O)=O)cc2)[nH]c1N/N=C/c1c(Cl)cccc1Cl", "endpointName": "TGI", "relationSign": "=", "val": 3.24}
{"compound": "COc1ccc(-c2nnc3n(C)c4ccccc4n3c2=O)cc1", "endpointName": "TGI", "relationSign": "=", "val": 84.3}
{"compound": "Oc1[nH]c2ccccc2c1C=Nc1ccc(-n2cncn2)cc1", "endpointName": "TGI", "relationSign": ">", "val": 25}
{"compound": "CC1=C(C(=O)Nc2ccc(Cl)c(Cl)c2)C(c2cccc(Cl)c2)NC(=S)N1 (stereo unspecified)", "endpointName": "TGI", "relationSign": ">", "val": 50}
{"compound": "COc1cc(O)c(C(=O)/C=C/c2ccc(OC)c(OCc3ccccc3)c2)c(OC)c1", "endpointName": "TGI", "relationSign": "=", "val": 2.43}
{"compound": "C=C(C)CCC1C=[N+]([O-])OC(C)(C)C1(C)C (stereo unspecified)", "endpointName": "TGI", "relationSign": ">", "val": 100}

---

test system: SK-MEL-28 melanoma; assay: NCI tumour cell line growth inhibition, 48 h; in the data active = GI50 below about 0.43 µM; inactive = the rest
Labels: true for active, false for inactive

{"compound": "COC(=O)c1cc2cc(/C=C3/SC(=S)N(N(C(C)=O)C(C)=O)C3=O)oc2n1Cc1ccccc1", "answerLabel": "false"}
{"compound": "CN(CCCCCl)P(=O)(OCc1ccc([N+](=O)[O-])o1)OCC1OC(n2cc([N+](=O)[O-])c(=O)[nH]c2=O)CC1O (stereo unspecified)", "answerLabel": "false"}
{"compound": "CC(=O)c1c(C)c2cnc(Nc3ccc(N4CCNCC4)cn3)nc2n(C2CCCC2)c1=O", "answerLabel": "false"}
{"compound": "O=C1/C(=C/c2ccc(C(F)(F)F)cc2)COc2ccc(O)c(O)c21", "answerLabel": "false"}
{"compound": "COc1ccc(-c2[nH]ncc2Nc2cc(OC)c(OC)c(OC)c2)cc1", "answerLabel": "false"}
{"compound": "Cc1cc(N(CCNc2ccnc3cc(Cl)ccc23)Cc2ccc3c(c2)OCO3)nc(N2CCCC2)n1", "answerLabel": "false"}
{"compound": "O=C(CI)Nc1ccc(Br)cc1", "answerLabel": "false"}
{"compound": "CC(C)(C)[Si](C)(C)OC1[C@@H](COC(=O)NC(=O)CCl)O[C@@H](n2cnc3c(N)ncnc32)[C@H]1O[Si](C)(C)C(C)(C)C (stereo partly specified)", "answerLabel": "false"}
{"compound": "COc1ccc2c(c1)C(=O)c1c-2n(CCCN(C)C)c(=O)c2cc([N+](=O)[O-])ccc12", "answerLabel": "true"}
{"compound": "CCc1c(C)c2cc(-n3c(-c4ccc(OC)cc4)csc3=N)c(O)c(C)c2oc1=O", "answerLabel": "false"}
{"compound": "COc1cc(C(=O)n2nc(N)c3c(C)cc(C)nc32)cc(OC)c1OC", "answerLabel": "false"}

---

Reported TGI values for a set of compounds
test system: NCI-H226 lung; assay: NCI tumour cell line growth inhibition, 48 h

{"compound": "COc1ccc2nc3ccccc3c(NCCNCC(C)O)c2c1 (stereo not given)", "endpointUnit": "µM", "relationSign": "=", "TGI": 4.79}
{"compound": "Cc1ccc(NC(=O)C2C3CCC(O3)C2C(=O)O)cc1 (stereo not given)", "endpointUnit": "µM", "relationSign": ">", "TGI": 100}
{"compound": "Fc1ccc(Nc2nc(Nc3ccc(-c4nc5ccccc5[nH]4)cc3)c3cn[nH]c3n2)cc1", "endpointUnit": "µM", "relationSign": "=", "TGI": 7.07}
{"compound": "COc1ccc([C@H]2CC3C(=O)N(c4ccc(OC)cc4)C(=O)C3c3[nH]c4ccccc4c32)cc1 (stereo not given in full)", "endpointUnit": "µM", "relationSign": ">", "TGI": 100}
{"compound": "O=C1/C(=C/c2ccc([N+](=O)[O-])o2)Oc2ccc(Cl)cc21", "endpointUnit": "µM", "relationSign": "=", "TGI": 3.97}
{"compound": "COC(=O)C(CCC1(C)OCCO1)=[N+]=[N-]", "endpointUnit": "µM", "relationSign": ">", "TGI": 100}
{"compound": "O=C(O)c1nn(-c2ccccc2)nc1-c1nn(-c2ccccc2)nc1C(=O)O", "endpointUnit": "µM", "relationSign": ">", "TGI": 100}
{"compound": "COc1ccc2c(c1)/c(=C/C#N)c1c3ccccc3[n+](C)n21", "endpointUnit": "µM", "relationSign": "=", "TGI": 21.4}
{"compound": "CN(CCCCCl)P(=O)(OCc1ccc([N+](=O)[O-])o1)OCC1OC(n2cc([N+](=O)[O-])c(=O)[nH]c2=O)CC1O (stereo not given)", "endpointUnit": "µM", "relationSign": ">", "TGI": 100}
{"compound": "CCCN(CCC)C(=O)c1c(N2CCN(C)CC2)c2cccnc2n2c(C)cnc12", "endpointUnit": "µM", "relationSign": ">", "TGI": 100}
